FYI, the data here is from ChEMBL document CHEMBL4321807.

# method: Half life in mouse serum
# Format: ADME, cell-free
quantity-kind: half-life (min)

>>> df
                              sample_smiles  unit  number
0  CC1(C)C(/C=C/C2=C(Cl)C(=C/C=C3/N(CCCCCC(=O)O)c4ccccc4C3(C)C)/CCC2)=[N+](CCCCCC(=O)O)c2ccccc21.[Cl-]   min      36

---

# method: Half life in mouse serum at 50 uM incubated for 360 mins by HPLC analysis
# Assay type: ADME, cell-free

sample-smiles	half-life at 50 µM
CC1(C)C(/C=C/C2=C(SCCC(=O)Nc3ccn([C@@H]4O[C@H](CO)[C@@H](O)C4(F)F)c(=O)n3)C(=C/C=C3/N(CCCCCC(=O)O)c4ccccc4C3(C)C)/CCC2)=[N+](CCCCCC(=O)O)c2ccccc21.[Cl-]	1 h

---

# method: Drug localization in lysosome of human U87 cells at 20 uM incubated for 45 mins by Lysotracker staining-based confocal fluorescence microscopy
# Type: ADME
# run-conditions: u-87mg atcc, 0.75 h

sample-smiles	Drug uptake
CC1(C)C(/C=C/C2=C(Cl)C(=C/C=C3/N(CCCCS(=O)(=O)O)c4ccccc4C3(C)C)/CCC2)=[N+](CCCCS(=O)(=O)O)c2ccccc21.[Cl-]	Active
CCCN1/C(=C/C=C2\CCCC(/C=C/C3=[N+](CCC)c4ccccc4C3(C)C)=C2Cl)C(C)(C)c2ccccc21.[Cl-]	Active
CCCN1/C(=C/C=C2\CCCC(/C=C/C3=[N+](CCC)c4ccccc4C3(C)C)=C2SCCC(=O)Nc2ccn([C@@H]3O[C@H](CO)[C@@H](O)C3(F)F)c(=O)n2)C(C)(C)c2ccccc21.[Cl-]	Active

---

# method: Drug localization in mitochondria of human U87 cells at 20 uM incubated for 45 mins by Mitotracker staining-based confocal fluorescence microscopy
# Format: ADME
# run-conditions: u-87mg atcc, 0.75 h

sample-smiles	Drug uptake
CC1(C)C(/C=C/C2=C(Cl)C(=C/C=C3/N(CCCCS(=O)(=O)O)c4ccccc4C3(C)C)/CCC2)=[N+](CCCCS(=O)(=O)O)c2ccccc21.[Cl-]	Active
CCCN1/C(=C/C=C2\CCCC(/C=C/C3=[N+](CCC)c4ccccc4C3(C)C)=C2SCCC(=O)Nc2ccn([C@@H]3O[C@H](CO)[C@@H](O)C3(F)F)c(=O)n2)C(C)(C)c2ccccc21.[Cl-]	Active
CC1(C)C(/C=C/C2=C(Cl)C(=C/C=C3/N(CCCCCC(=O)O)c4ccccc4C3(C)C)/CCC2)=[N+](CCCCCC(=O)O)c2ccccc21.[Cl-]	Active

---

# method: Half life of compound in human U87 tumor homogenate at 50 uM measured upto 72 hrs by HPLC analysis
# Format: ADME, U-87MG ATCC

sample-smiles	half-life at 50 µM (h)
CC1(C)C(/C=C/C2=C(SCCC(=O)Nc3ccn([C@@H]4O[C@H](CO)[C@@H](O)C4(F)F)c(=O)n3)C(=C/C=C3/N(CCCCCC(=O)O)c4ccccc4C3(C)C)/CCC2)=[N+](CCCCCC(=O)O)c2ccccc21.[Cl-]	60
